Data origin, for the record: a flash point compilation (Sun et al. 2020)

flash point strictly under 40 °C means class 1; at 40 °C or over means class 0.

Would you please look over these solved cases?
1) C1CCCCC1: class 1
2) C=CCOCCC: class 1
3) CC(C)c1ccccc1O: class 0
4) C=Cc1cccc(C)c1: class 0
5) CC(C)CCl: class 1
6) CCOCCO: class 0
7) Cc1ccccc1I: class 0
8) CCC/C=C/CCC [trans-4-octene]: class 1
9) Cc1ccccc1Cl: class 0
10) CCCc1ccccc1N: class 0

Query: For this compound, is flash point lower than 40 °C? CCCCC(=O)CCCC
Response: class 0

Query: For this compound, is flash point lower than 40 °C? CC(C)(C)SSC(C)(C)C [di-tert-butyldisulfide]
Response: class 0

Query: For this compound, is flash point lower than 40 °C? CCCCC[N+](=O)[O-]
Response: class 0
